Measured values drawn from PubChem BioAssay for this set.

experiment: stimulators of insulin release from INS-1E, primary screen, cell-based, 5 mM glucose, NPC library (AID 1117329); conditions: rat INS-1E insulin secretion, at 10 µM; further: reference of the scale not given here
Calls of active or inactive are those of the source.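 How the source made its calls: active means compound raises insulin release from rat beta cells at 5 mM glucose, no numeric limit stated; inactive means the rest.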
Pick from active, inactive when you respond.

Before answering, review these 10 worked examples.
molecule=CCCCc1oc2ccccc2c1C(=O)c1cc(I)c(OCCN(CC)CC)c(I)c1 class_name=inactive
molecule=CC(C)CCC[C@@H](C)[C@H]1CC[C@H]2[C@@H]3CC=C4C[C@@H](O)CC[C@]4(C)[C@@H]3CC[C@]12C class_name=inactive
molecule=CC(=O)CC/C=C(\C)CC/C=C(\C)CC/C=C(\C)CCC=C(C)C class_name=inactive
molecule="CC(C)(Cc1c[nH]c2ccccc12)NCC(O)COc1ccccc1C#N (centres undefined)" class_name=active
molecule="O=C1CCC(N2C(=O)c3ccccc3C2=O)C(=O)N1 (centres undefined)" class_name=inactive
molecule="O=C(CCN1CCN2CCCC2C1)N1c2ccccc2Sc2ccc(Cl)cc21 (centres undefined)" class_name=active
molecule=CCN(CC)CC(=O)Oc1ccc(NC(C)=O)cc1 class_name=inactive
molecule="CC(C)Cc1ccc(C(C)C(=O)O)cc1 (centres undefined)" class_name=inactive
molecule=C#Cc1ccc(-c2ccccc2F)cc1 class_name=inactive
molecule=C/C=C/c1ccc(O)c(OC)c1 class_name=inactive

Recorded test call requested for CC(C(O)c1ccccc1)N(C)CCOC(c1ccccc1)c1ccccc1 (centres undefined)
inactive

Recorded test call requested for Cc1ccc(-c2cc(C(F)(F)F)nn2-c2ccc(S(N)(=O)=O)cc2)cc1
inactive

Recorded test call requested for CSc1ccc2c(c1)N(CCC1CCCCN1C)c1ccccc1S2 (centres undefined)
inactive

Recorded test call requested for CN(C)CCCN1c2ccccc2CCc2ccc(Cl)cc21
inactive

Recorded test call requested for O=C(O)Cc1csc(-c2ccc(Cl)cc2)n1
inactive

Recorded test call requested for CC(=O)OC[C@H]1O[C@@](COC(C)=O)(O[C@H]2O[C@H](COC(C)=O)[C@@H](OC(C)=O)[C@H](OC(C)=O)[C@H]2OC(C)=O)[C@@H](OC(C)=O)[C@@H]1OC(C)=O
inactive

Recorded test call requested for CCCCCCCCCCCCSCCOCCO
inactive

Recorded test call requested for CCN(CCO)CCCC(C)Nc1ccnc2cc(Cl)ccc12 (centres undefined)
inactive

Recorded test call requested for O=C(Nc1ncc([N+](=O)[O-])s1)c1cccs1
inactive

Recorded test call requested for CN[C@H](CC(C)C)C(=O)N[C@H]1C(=O)N[C@@H](CC(N)=O)C(=O)N[C@H]2C(=O)N[C@H]3C(=O)N[C@H](C(=O)N[C@H](C(=O)O)c4cc(O)cc(O)c4-c4cc3ccc4O)[C@H](O)c3ccc(c(Cl)c3)Oc3cc2cc(c3O[C@@H]2OC(CO)[C@@H](O)[C@H](O)[C@@H]2O[C@H]2C[C@](C)(N)[C@H](O)[C@H](C)O2)Oc2ccc(cc2Cl)[C@H]1O (some centres undefined)
inactive

Recorded test call requested for CCCCN=C(N)N=C(N)N
inactive

Recorded test call requested for CCCCCOc1ccc(C2SC(=O)NC2=O)cc1OCC (centres undefined)
inactive

Recorded test call requested for Cn1c(=O)c2[nH]c(Br)nc2n(C)c1=O
inactive

Recorded test call requested for CCCCCCCCCCC(CO)CCCCCCCC (centres undefined)
inactive

Recorded test call requested for CN1C(C(=O)Nc2ccccn2)=C(O)c2ccccc2S1(=O)=O
inactive

Recorded test call requested for O=c1[nH]cnc2[nH]ncc12
inactive

Recorded test call requested for O=C(/C=C/c1ccccc1)OCc1ccccc1
inactive

Recorded test call requested for COc1ccc(C=CC(=O)O)cc1
inactive

Recorded test call requested for NC(=O)COCCN1CCN(C(c2ccccc2)c2ccc(Cl)cc2)CC1 (centres undefined)
inactive
